Study target: T1, human monomeric EGFR (EGFR.mmh) (human, UniProt P00533 25-647)
T1 construct: Soluble monomeric EGFR construct
Assay remarks: SPR 37C, mAb captured by anti-human Fc, EGFR.mmh analyte

[
  {
    "Binder": "H1H159P (antibody, human IgG1, V domains shown, Human IgG1 Fc (H1H)) VH: EVQLVESGGGLVQPGGSLRLSCAASRFTFTNYWMSWVRQAPGKGLEWVAKIKQDGSEKYYLDSVKDRFTISRDNAKNSLYLQMNSLRAEDTAVYYCASSSSWYDYYYGMDVWGHGTTVTVSS VL: EIVLTQSPDFQSVTPKEKVTITCRASQSIGTNLHWYQQRPDQSPKLLIKFASQSFSGVPSRFSGSGSGTDFTLTINSLEAEDAATYYCHQTNFLPHTFGGGTKVEIKR",
    "kon, M⁻¹ s⁻¹": 476000
  },
  {
    "Binder": "H1H086N (antibody, human IgG1, V domains shown, Tested in human IgG1 Fc format (H1H); also called H1M086N) VH: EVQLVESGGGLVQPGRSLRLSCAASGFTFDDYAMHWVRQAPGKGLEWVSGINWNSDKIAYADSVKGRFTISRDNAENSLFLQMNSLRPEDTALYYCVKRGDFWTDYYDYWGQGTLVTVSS VL: DIVMTQSPLSLPVTPGEPASISCRSSQSLLHSNGYNYLDWYLQKPGQSPHLLIYLVSTRASGVPDRFSGSGSGTDFTLKISRVEAEDVGVYYCMQALQTPWTFGQGTKVEIK",
    "kon, M⁻¹ s⁻¹": 540000
  },
  {
    "Binder": "H1H161P (antibody, human IgG1, V domains shown, Human IgG1 Fc (H1H)) VH: QVQLVESGGGVVQPGRSLRLSCAASGFTFSNYGMYWVRQAPGKGLEWVTFISYDGSNKNYVDSMKGRFTISRDNSKNTLYLQMNSLRVEDTAVYYCAKDRISGTPWYGMDVWGQGTTVTVSS VL: DIQMTQSPSSLSASVGDRVTITCRASQDIADYLAWFQQKPGKAPKSLIFAASSLESWVPLKFSGSGSGTDFTLTISSLQPEDFATYYCQQYSRFPITFGQGTKVEIK",
    "kon, M⁻¹ s⁻¹": 489000
  }
]
